Source of measurements: patent US11434242B2

target: Dopamine beta hydroxylase (Homo sapiens); construct: 125 μl of plasma; tissue Instituto Português do Sangue Transplantação; host or cells: human plasma from healthy donors; experiment: Dopamine beta hydroxylase activity in human plasma; type: biochemical; details: inhibitor 0.01 μM, re-tested under the same experimental conditions, asterisked data believed to be correct
Sequence (P09172 40-617 limits assumed): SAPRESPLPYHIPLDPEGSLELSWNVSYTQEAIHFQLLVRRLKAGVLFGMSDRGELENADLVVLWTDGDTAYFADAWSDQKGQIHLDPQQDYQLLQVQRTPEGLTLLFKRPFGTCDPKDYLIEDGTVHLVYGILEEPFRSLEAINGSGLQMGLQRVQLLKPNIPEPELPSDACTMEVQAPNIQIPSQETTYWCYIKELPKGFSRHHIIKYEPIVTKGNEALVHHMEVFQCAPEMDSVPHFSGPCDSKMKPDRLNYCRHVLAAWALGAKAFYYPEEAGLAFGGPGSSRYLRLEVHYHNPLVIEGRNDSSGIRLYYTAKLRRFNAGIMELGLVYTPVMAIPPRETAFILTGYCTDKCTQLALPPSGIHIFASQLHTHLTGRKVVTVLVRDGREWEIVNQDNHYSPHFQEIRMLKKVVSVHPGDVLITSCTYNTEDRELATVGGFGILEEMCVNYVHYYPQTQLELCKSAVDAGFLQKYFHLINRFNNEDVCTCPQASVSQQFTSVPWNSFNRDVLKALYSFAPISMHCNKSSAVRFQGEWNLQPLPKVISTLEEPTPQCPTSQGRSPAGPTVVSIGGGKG
Marks after values point to notes of the source that are not given here.
Assay Readout: Plasma (0.01 μM), activity in % of control, re-test (asterisked)

Molecule | Observed
CN(C(=O)Cc1[nH]c(=S)n2c1C[C@@H](c1c(F)ccc(Br)c1F)C2)C1CCOC1 (some centres unmarked) | 78.0* % of control
Cl.Fc1cc(F)c(F)c([C@H]2Cc3c(CCN4CCOCC4)[nH]c(=S)n3C2)c1F | 119.3* % of control
Cn1c(CC(=O)NC2CCOCC2)c2n(c1=S)C[C@@]1(c3cc(Br)ccc3F)C[C@@H]21 | 41.9* % of control
Cn1c(CC(=O)Nc2ncco2)c2n(c1=S)C[C@@H](c1c(F)c(F)cc(F)c1F)C2 | 73.1* % of control
Cn1c(CC(=O)N2CCCCC2)c2n(c1=S)C[C@@]1(c3cc(Br)ccc3F)C[C@@H]21 | 67.6* % of control
Cl.Fc1cc(F)c(F)c([C@H]2Cc3c(CCN4CCCC4)[nH]c(=S)n3C2)c1F | 84.5* % of control
Cn1c(CC(=O)NCC(F)(F)F)c2n(c1=S)C[C@@H](c1c(F)c(F)cc(F)c1F)C2 | 94.0* % of control
CN(C(=O)Cc1c2n(c(=S)n1C)C[C@H](c1c(F)ccc(Br)c1F)C2)C1CCOC1 (some centres unmarked) | 46.0* % of control
Cn1c(CC(=O)N[C@@H]2CCOC2)c2n(c1=S)C[C@@H](c1c(F)c(F)cc(F)c1F)C2 | 87.3* % of control
O=C(Cc1[nH]c(=S)n2c1C[C@H](c1c(F)c(F)cc(F)c1F)C2)N[C@@H]1CCOC1 | 90.1* % of control
Cn1c(CC(=O)N2CCOCC2)c2n(c1=S)C[C@H](c1c(F)ccc(Br)c1F)C2 | 59.3* % of control
